Recorded melting point values for a group of compounds are listed next.

[
  {
    "compound": "CC(C)C[C@H](NC(=O)N1CCCCCC1)C(=O)N[C@@H](Cc1ccc(C=CC2(O)CCCCC2)cc1)C(=O)NC(C)(C)C",
    "melting point": "125 °C (dec.)"
  },
  {
    "compound": "CC(C)C[C@H](NC(=O)N1CCCCCC1)C(=O)N[C@@H](Cc1ccc(OC(C)(C)C)cc1)C(=O)OC(C)(C)C",
    "melting point": "87 to 90 °C"
  },
  {
    "compound": "CC(C)C[C@H](NC(=S)Nc1ccccc1Cl)C(=O)N[C@@H](Cc1ccc(OCc2ccccc2)cc1)C(=O)OC(C)(C)C",
    "melting point": "66 to 67 °C"
  },
  {
    "compound": "CC(C)C[C@H](NC(=O)N1CCCCCC1)C(=O)N[C@@H](Cc1ccc(C#CCN2CCS(=O)(=O)CC2)cc1)C(=O)NC(C)(C)C",
    "melting point": "117 to 118 °C"
  },
  {
    "compound": "CC(C)C[C@H](NC(=O)N1CCCCCC1)C(=O)N[C@](C)(Cc1ccc(OCc2ccccc2)cc1)C(=O)OC(C)(C)C [Example 11B]",
    "melting point": "62 to 66 °C"
  },
  {
    "compound": "CC(C)C[C@H](NC(=O)N1CCCCCC1)C(=O)N[C@@H](Cc1ccc(CCc2ccccn2)cc1)C(=O)NC(C)(C)C",
    "melting point": "154 to 156 °C"
  },
  {
    "compound": "Cc1ccc(COc2ccc(C[C@H](NC(=O)[C@H](Cc3ccccc3)NC(=O)N3CCCCCC3)C(=O)OC(C)(C)C)cc2)cc1",
    "melting point": "87 to 90 °C"
  }
]

----------
# target_desc: N-type Ca2+ channels in IMR-32 cells (Homo sapiens, UniProt Q00975)
# Sequence (Q00975 whole entry): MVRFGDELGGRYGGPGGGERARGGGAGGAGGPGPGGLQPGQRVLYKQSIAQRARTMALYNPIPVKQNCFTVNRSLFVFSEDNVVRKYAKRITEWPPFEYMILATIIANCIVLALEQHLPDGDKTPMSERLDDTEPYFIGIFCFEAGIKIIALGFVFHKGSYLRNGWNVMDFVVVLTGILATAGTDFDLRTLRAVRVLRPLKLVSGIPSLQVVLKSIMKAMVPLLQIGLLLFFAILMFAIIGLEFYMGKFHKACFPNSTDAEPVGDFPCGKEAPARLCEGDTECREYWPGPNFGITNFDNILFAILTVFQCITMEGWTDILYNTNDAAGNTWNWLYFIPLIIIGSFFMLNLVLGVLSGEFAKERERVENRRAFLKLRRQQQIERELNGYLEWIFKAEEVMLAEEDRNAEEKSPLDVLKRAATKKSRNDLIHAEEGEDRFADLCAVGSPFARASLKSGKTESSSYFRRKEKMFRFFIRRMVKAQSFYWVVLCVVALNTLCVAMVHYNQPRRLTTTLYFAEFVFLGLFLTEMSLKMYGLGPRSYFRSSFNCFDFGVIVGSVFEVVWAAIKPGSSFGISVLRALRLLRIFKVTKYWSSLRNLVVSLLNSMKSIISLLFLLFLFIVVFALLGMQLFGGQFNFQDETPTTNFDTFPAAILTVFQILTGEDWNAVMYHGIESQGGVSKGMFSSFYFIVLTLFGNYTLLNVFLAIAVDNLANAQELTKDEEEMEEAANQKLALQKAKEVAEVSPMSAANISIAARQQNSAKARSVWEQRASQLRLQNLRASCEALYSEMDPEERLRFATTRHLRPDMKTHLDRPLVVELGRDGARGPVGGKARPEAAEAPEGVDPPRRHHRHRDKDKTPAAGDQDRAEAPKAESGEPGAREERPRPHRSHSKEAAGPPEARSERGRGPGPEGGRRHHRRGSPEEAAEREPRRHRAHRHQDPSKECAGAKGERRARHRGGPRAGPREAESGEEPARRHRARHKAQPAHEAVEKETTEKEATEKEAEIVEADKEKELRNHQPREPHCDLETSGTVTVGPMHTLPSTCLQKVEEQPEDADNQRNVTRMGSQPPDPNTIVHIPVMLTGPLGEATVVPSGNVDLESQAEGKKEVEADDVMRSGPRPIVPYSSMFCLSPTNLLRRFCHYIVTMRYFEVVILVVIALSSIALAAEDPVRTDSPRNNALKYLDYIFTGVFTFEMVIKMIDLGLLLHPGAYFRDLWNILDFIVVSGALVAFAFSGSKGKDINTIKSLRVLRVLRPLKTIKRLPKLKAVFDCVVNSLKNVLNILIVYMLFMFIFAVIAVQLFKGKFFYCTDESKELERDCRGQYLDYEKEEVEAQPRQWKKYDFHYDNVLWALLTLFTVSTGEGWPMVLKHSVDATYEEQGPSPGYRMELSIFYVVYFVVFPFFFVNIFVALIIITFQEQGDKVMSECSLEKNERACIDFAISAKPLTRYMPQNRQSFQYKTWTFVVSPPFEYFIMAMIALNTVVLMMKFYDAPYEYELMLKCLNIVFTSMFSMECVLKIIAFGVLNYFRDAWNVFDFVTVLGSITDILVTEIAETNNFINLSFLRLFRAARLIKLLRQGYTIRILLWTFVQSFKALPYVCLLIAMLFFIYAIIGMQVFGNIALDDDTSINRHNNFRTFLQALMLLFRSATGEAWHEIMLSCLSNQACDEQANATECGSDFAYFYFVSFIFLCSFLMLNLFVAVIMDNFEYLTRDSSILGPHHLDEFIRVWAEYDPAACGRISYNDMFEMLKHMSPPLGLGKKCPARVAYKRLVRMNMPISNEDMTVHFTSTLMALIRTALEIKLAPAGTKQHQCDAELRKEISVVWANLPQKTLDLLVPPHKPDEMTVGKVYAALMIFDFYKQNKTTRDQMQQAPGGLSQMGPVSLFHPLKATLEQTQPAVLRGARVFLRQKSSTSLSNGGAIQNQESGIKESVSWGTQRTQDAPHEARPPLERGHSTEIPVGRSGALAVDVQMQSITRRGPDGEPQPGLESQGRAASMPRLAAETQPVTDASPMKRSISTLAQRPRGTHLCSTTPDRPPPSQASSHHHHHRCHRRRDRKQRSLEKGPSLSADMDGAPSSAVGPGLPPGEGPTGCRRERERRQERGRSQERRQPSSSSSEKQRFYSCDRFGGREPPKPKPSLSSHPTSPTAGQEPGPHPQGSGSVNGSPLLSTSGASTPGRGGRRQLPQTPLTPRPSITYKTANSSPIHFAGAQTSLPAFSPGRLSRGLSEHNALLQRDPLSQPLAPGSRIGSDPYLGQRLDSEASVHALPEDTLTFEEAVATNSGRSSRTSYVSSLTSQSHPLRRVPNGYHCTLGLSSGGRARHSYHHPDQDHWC
# Sequence (P54289 25-956 partner limits assumed): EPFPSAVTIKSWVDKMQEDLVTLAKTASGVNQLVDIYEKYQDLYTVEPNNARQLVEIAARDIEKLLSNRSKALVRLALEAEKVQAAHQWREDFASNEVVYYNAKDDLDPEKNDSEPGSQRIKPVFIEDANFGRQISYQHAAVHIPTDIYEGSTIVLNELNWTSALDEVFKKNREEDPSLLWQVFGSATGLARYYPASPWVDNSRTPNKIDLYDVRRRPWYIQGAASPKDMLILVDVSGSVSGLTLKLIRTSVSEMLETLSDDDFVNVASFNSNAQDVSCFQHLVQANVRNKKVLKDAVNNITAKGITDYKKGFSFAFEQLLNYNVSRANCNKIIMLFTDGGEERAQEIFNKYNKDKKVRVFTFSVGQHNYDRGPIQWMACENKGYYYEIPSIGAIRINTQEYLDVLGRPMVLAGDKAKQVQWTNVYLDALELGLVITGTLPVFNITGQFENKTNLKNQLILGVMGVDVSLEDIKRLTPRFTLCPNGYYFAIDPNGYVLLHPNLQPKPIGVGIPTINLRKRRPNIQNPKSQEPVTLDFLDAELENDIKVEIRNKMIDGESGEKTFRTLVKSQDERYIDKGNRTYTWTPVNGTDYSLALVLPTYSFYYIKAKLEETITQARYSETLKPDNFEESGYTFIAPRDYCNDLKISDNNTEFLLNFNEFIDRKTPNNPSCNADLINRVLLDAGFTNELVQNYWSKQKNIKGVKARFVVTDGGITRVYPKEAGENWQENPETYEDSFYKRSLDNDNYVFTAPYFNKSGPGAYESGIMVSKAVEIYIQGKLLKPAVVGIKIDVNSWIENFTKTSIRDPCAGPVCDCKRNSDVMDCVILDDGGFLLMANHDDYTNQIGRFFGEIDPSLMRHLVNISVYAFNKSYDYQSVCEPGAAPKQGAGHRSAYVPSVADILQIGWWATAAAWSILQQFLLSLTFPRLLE
# Sequence (P54289 957-1103 partner limits assumed): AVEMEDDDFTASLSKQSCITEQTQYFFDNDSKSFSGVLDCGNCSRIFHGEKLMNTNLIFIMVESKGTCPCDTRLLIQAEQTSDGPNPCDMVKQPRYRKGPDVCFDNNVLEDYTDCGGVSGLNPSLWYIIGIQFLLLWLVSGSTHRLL
# Sequence (P54284 whole entry partner): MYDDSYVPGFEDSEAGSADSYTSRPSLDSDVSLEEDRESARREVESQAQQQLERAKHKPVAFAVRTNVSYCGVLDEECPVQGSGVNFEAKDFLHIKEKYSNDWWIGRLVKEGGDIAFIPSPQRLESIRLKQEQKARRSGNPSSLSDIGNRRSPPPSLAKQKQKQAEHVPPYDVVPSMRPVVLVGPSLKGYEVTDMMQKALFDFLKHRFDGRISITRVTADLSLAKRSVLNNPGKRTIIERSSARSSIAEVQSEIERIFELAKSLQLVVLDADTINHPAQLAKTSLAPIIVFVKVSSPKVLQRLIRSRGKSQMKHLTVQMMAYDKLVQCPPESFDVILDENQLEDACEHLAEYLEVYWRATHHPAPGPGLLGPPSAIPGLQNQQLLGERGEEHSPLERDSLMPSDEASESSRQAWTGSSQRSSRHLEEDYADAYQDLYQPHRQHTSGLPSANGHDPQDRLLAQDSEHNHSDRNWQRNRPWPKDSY
# assay_method_text: Inhibition of N-type calcium flux in IMR-32 cells (Indo-1 fluorescence, nitrendipine present)
# measurement_setup: IMR-32 cells, 5 μM nitrendipine, K+ depolarization
Hi all, reminder that labels come from IC50, split as group A: < 1000 nM; group B: ≥ 1000 nM and < 2000 nM; group C: ≥ 2000 nM

[
  {
    "compound": "CC(C)C[C@H](NC(=O)N1CCCCCC1)C(=O)N[C@@H](Cc1ccc(OCc2ccccc2)cc1)C(=O)NCCNCc1ccccc1 [Example 252]",
    "class_assignment": "group A"
  },
  {
    "compound": "CCCCCCNC(=O)[C@H](Cc1ccc(OCc2ccccc2)cc1)NC(=O)[C@H](CC(C)C)NC(=O)N1CCCCCC1 [Example 168]",
    "class_assignment": "group A"
  },
  {
    "compound": "CC(C)C[C@H](NC(=O)N1CCCCCC1)C(=O)N[C@@H](Cc1ccc(OCc2ccccc2)cc1)C(=O)NCCc1ccco1 [Example 174]",
    "class_assignment": "group B"
  },
  {
    "compound": "CC(C)C[C@H](NC(=O)N1CCCCCC1)C(=O)N[C@@H](Cc1ccc(OCc2ccccc2)cc1)C(=O)Nc1cccnc1 [Example 254]",
    "class_assignment": "group B"
  },
  {
    "compound": "CC(C)C[C@H](NC(=O)N1CCCCCC1)C(=O)N[C@@H](Cc1ccc(OCc2ccncc2)cc1)C(=O)OC(C)(C)C [Example 26]",
    "class_assignment": "group B"
  },
  {
    "compound": "CC(C)C[C@H](NC(=O)N1CCCCCC1)C(=O)N[C@@H](Cc1ccc(OCc2ccccc2)cc1)C(=O)NCCCNC1CCCCC1 [Example 184]",
    "class_assignment": "group C"
  },
  {
    "compound": "CSCC[C@H](NC(=O)N1CCCCCC1)C(=O)N[C@@H](Cc1ccc(OCc2ccccc2)cc1)C(=O)NC(C)(C)C [Example 155]",
    "class_assignment": "group C"
  },
  {
    "compound": "CC(C)C[C@H](NC(=O)N1CCCCCC1)C(=O)N[C@@H](Cc1ccc(OCc2ccccc2)cc1)C(=O)N1CCCNCC1 [Example 259]",
    "class_assignment": "group C"
  },
  {
    "compound": "CC(C)C[C@H](NC(=O)N1CCCCCC1)C(=O)N[C@@H](Cc1ccc(OCc2ccccn2)cc1)C(=O)OC(C)(C)C [Example 25]",
    "class_assignment": "group C"
  },
  {
    "compound": "CC(C)CC(NC(=O)N1CCCCCC1)C(=O)NC(Cc1ccc(OCc2ccccc2)cc1)C(=O)NCCC1CCCN1C (stereo not drawn) [Example 193]",
    "class_assignment": "group C"
  },
  {
    "compound": "O=C(NCCN1CCCCC1)[C@H](Cc1ccc(OCc2ccccc2)cc1)NC(=O)[C@H](Cc1ccc(O)cc1)NC(=O)N1CCCCCC1 [Example 156]",
    "class_assignment": "group C"
  },
  {
    "compound": "CC(C)CC(NC(=O)N1CCCCCC1)C(=O)NC(Cc1ccc(OCc2ccccc2)cc1)C(=O)NCC(O)c1ccccc1 (stereo not drawn) [Example 190]",
    "class_assignment": "group A"
  },
  {
    "compound": "CC(C)C[C@H](NC(=O)N1CCCCCC1)C(=O)N[C@@H](Cc1ccc(OCc2ccccc2)cc1)C(=O)NCC1CCCCC1 [Example 205]",
    "class_assignment": "group C"
  },
  {
    "compound": "CCCN1CCCC(NC(=O)C(Cc2ccc(OCc3ccccc3)cc2)NC(=O)C(CC(C)C)NC(=O)N2CCCCCC2)C1 (stereo not drawn) [Example 195]",
    "class_assignment": "group A"
  },
  {
    "compound": "CC(C)C[C@H](NC(=O)N1CCCCCC1)C(=O)N[C@@H](Cc1ccc(OCc2ccccc2)cc1)C(=O)NCCc1ccccn1 [Example 231]",
    "class_assignment": "group B"
  },
  {
    "compound": "C[C@H](NC(=O)N1CCCCCC1)C(=O)N[C@@H](Cc1ccc(OCc2ccccc2)cc1)C(=O)OC(C)(C)C (relative stereo) [Example 7]",
    "class_assignment": "group B"
  },
  {
    "compound": "COC(=O)[C@H](Cc1ccc(OCc2ccccc2)cc1)NC(=O)[C@H](CC(C)C)NC(=O)N1CCCCCC1 [Example 15]",
    "class_assignment": "group B"
  },
  {
    "compound": "CC(C)(C)C[C@H](NC(=O)N1CCCCCC1)C(=O)N[C@@H](Cc1ccc(OCc2ccccc2)cc1)C(=O)NCCN1CCCCC1 [Example 159]",
    "class_assignment": "group A"
  },
  {
    "compound": "CC(C)C[C@H](NC(=O)N1CCOCC1)C(=O)N[C@@H](Cc1ccc(OCc2ccccc2)cc1)C(=O)N1CCCCC1 (relative stereo) [Example 151]",
    "class_assignment": "group C"
  },
  {
    "compound": "CC(C)C[C@H](NC(=O)N1CCCCCC1)C(=O)N[C@@H](Cc1ccc(OCc2ccccc2)cc1)C(=O)NC1CCNC1 (stereo partly drawn) [Example 258]",
    "class_assignment": "group C"
  },
  {
    "compound": "CC(C)C[C@H](NC(=O)N1CCCCCC1)C(=O)N[C@@H](Cc1ccc(OCc2ccccc2)cc1)C(=O)Nc1nccs1 [Example 207]",
    "class_assignment": "group C"
  },
  {
    "compound": "CC(C)C[C@H](NC(=O)N1CCCCCC1)C(=O)N[C@@H](Cc1ccc(OCc2ccccc2)cc1)C(=O)NCCN1CCCCC1 [Example 171]",
    "class_assignment": "group A"
  },
  {
    "compound": "CC(C)CC(NC(=O)N1CCCCCC1)C(=O)NC(Cc1ccc(OCc2ccccc2)cc1)C(=O)NC(C)C(C)C (stereo not drawn) [Example 192]",
    "class_assignment": "group A"
  }
]

----------
# target_desc: N-type Ca2+ channels in IMR-32 cells (Homo sapiens)
# Construct: host or cells: IMR-32 cells, differentiated with dibutyryl cAMP and bromodeoxyuridine
# assay_method_text: Inhibition of N-type calcium flux in IMR-32 cells (Indo-1 fluorescence, nitrendipine present)
# Assay type: cell-based
# measurement_setup: IMR-32
Recorded inhibition at 1 µM values for a group of molecules are listed next.

[
  {
    "smiles_record": "CC(C)C[C@H](NC(=O)N1CCCCCC1)C(=O)N[C@@H](Cc1ccc(OCc2ccccc2)cc1)C(=O)Nc1cccnc1",
    "inhibition at 1 µM, %": 39
  },
  {
    "smiles_record": "CC(C)C[C@H](NC(=O)N1CCCCCC1)C(=O)N[C@@H](Cc1ccc(OC(C)(C)C)cc1)C(=O)OC(C)(C)C",
    "inhibition at 1 µM, %": 57
  },
  {
    "smiles_record": "CC(C)C[C@H](NC(=O)N1CCCCCC1)C(=O)N[C@@H](Cc1ccc(OCc2ccccc2)cc1)C(=O)NC1CC1",
    "inhibition at 1 µM, %": 27
  },
  {
    "smiles_record": "CC(C)(C)OC(=O)[C@H](Cc1ccc(OCc2ccccc2)cc1)NC(=O)[C@H](Cc1c[nH]c2ccccc12)NC(=O)N1CCCCCC1",
    "inhibition at 1 µM, %": 52
  }
]
